Property: TGI; scope: individual molecules
System: SF-539 CNS
Test: NCI tumour cell line growth inhibition, 48 h

Task: Please give the measured TGI for this molecule: CC1CCOc2ccc(cc2)C=Nc2ccc(cc2)CCc2ccc(cc2)N=Cc2ccc(cc2)OCC1 (stereo unspecified)
Output: > 100 µM

Further cases:
Task: Please give the measured TGI for this molecule: CCOC(=O)CNC(=O)c1ccccc1Nc1ccnc(C(F)(F)F)c1
Output: > 100 µM

Task: Also OCC1OC(n2cnc3c(Cl)nc(Nc4ccccc4)nc32)CC1O (stereo unspecified) ?
Output: > 100 µM

Task: Also Cc1cc(N/N=C/c2nc(-c3ccc(Br)cc3)oc2C)c2cc(Br)ccc2n1 ?
Output: 3.5 µM
